Test system: barnyardgrass (Echinochloa crus-galli)
Experiment: Test C preemergence, visual plant response rating
Type: in vivo
Settings: Test C, 31 g ai/ha, 0 is no effect, 100 is complete control
value.kind: Barnyardgrass plant response rating (0 to 100 scale)
Answer with a number only.

State the recorded Barnyardgrass plant response rating (0 to 100 scale) for this entry: CO/N=C(/c1cccc(Br)c1)c1c(O)c(C)nn(C)c1=O [Compound 234] 0

State the recorded Barnyardgrass plant response rating (0 to 100 scale) for this entry: Cc1nn(C)c(=O)c(/C(=N/OC(C)C)c2cc(Cl)cc(Cl)c2F)c1O [Compound 179] 90

Now for a further molecule.
State the recorded Barnyardgrass plant response rating (0 to 100 scale) for this entry: CC(C)O/N=C(\c1c(O)c(Cl)nn(C)c1=O)c1ccc(F)c2ccccc12 [Compound 210] 30
